Values from paper PMC9243000

Assay: Cytotoxicity MTT assay, VeroE6
Format: cell-based
Details: VeroE6 cells, 24 h at 37 °C, DMEM with 1% FBS, n = 3, read-out: 50% toxicity concentration (TC50)
Positions of bridges follow the written chain, without caps; N, C: chain ends. Chains are numbered I, II in the order given. No end group written: not given here.
VALUE_KIND: CC50 at 24 h

Request the reported CC50 at 24 h associated with I: GAICHPVFCPRRYKQIGTCGLPGTKCCKKPKK / II: GAICHPVFCPRRYKQIGTCGLPGTKCCKKPK / III: GAICHPVFCPRRYKQIGTCGLPGTKCCKKP / IV: GAICHPVFCPRRYKQIGTCGLPGTKCCKKP (amide I:31-IV:C, I:32-II:C, II:31-III:C; cysteines drawn unpaired) [4H30]
> 400 µg/mL

----------
Assay: Cytotoxicity MTT assay, Calu-3
Assay type: cell-based
Conditions: human, Calu-3 cells, 24 h at 37 °C, DMEM with 1% FBS, n = 3, read-out: 50% toxicity concentration (TC50)
Positions of bridges follow the written chain, without caps; N, C: chain ends. Chains are numbered I, II in the order given. No end group written: not given here.
VALUE_KIND: CC50 at 24 h

Request the reported CC50 at 24 h associated with I: GAICHPVFCPRRYKQIGTCGLPGTKCCKKPKK / II: GAICHPVFCPRRYKQIGTCGLPGTKCCKKPK / III: GAICHPVFCPRRYKQIGTCGLPGTKCCKKP / IV: GAICHPVFCPRRYKQIGTCGLPGTKCCKKP (amide I:31-IV:C, I:32-II:C, II:31-III:C; cysteines drawn unpaired) [4H30]
> 400 µg/mL
